method-notes: self-splicing fitness, log relative to wild type (ln ratio); higher = more splicing; Tetrahymena group I intron in knt gene, E. coli kanamycin selection, DiMSum; sequences stand for … in CUCUCU…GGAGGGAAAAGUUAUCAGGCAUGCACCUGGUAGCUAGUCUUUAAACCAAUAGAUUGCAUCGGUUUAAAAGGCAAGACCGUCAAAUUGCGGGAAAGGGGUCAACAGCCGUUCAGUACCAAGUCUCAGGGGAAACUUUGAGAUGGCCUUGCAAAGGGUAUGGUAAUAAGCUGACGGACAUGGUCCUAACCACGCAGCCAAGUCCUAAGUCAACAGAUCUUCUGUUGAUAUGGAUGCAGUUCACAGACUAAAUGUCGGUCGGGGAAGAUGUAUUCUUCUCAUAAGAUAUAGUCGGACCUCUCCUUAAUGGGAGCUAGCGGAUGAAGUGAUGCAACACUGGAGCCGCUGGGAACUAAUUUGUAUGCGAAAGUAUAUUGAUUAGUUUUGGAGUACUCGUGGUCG;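 further: selection with 25 µg/mL kanamycin versus none on LB agar overnight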
stated-conditions: 30 °C
class 1 means recorded self-splicing fitness (ln) is -2 or above; class 0 means it is below -2.

• AGGGAGCAAUAUUACGCGAG = class 0
• UCCAAGCAAUAUUACGACAC = class 0
• UGGUAGCAAUAUUACGAUUC = class 0
• AGCAAGCAAUAUUACGGGGG = class 0
• GUACAGCAAUAUUACGAUCU = class 1
• CUAAAGCAAUAUUACGCAUU = class 0
• UUCCAGCAAUAUUACGAUAA = class 1
• UCUGAGCAAUAUUACGUGCU = class 0
• AGGAAGCAAUAUUACGUUGU = class 0
• GGCGAGCAAUAUUACGUGAG = class 0
• ACCUAGCAAUAUUACGCAGC = class 1
• UGCGAGCAAUAUUACGCGGA = class 0
• AGGCAGCAAUAUUACGCUCG = class 1
• AUGGAGCAAUAUUACGUAUA = class 1
• UACUAGCAAUAUUACGUCGG = class 0
• UCAGAGCAAUAUUACGUACC = class 0
• GAACAGCAAUAUUACGUAGA = class 1
• ACCGAGCAAUAUUACGACCG = class 0
• UGGUAGCAAUAUUACGCGAG = class 1
• CUAUAGCAAUAUUACGGGCU = class 0
• UAAAAGCAAUAUUACGGCGC = class 1
• AAAUAGCAAUAUUACGUACC = class 1
• UGACAGCAAUAUUACGGAUC = class 0
• UUUUAGCAAUAUUACGUGCU = class 0
• UAUAAGCAAUAUUACGCGCA = class 1
• ACAUAGCAAUAUUACGGUCA = class 1
• AUCUAGCAAUAUUACGCGUG = class 1
• CGACAGCAAUAUUACGUAAA = class 0
• CCCAAGCAAUAUUACGAGAU = class 0
• GUUCAGCAAUAUUACGUCGU = class 1
• AAGGAGCAAUAUUACGACGA = class 1
• GUACAGCAAUAUUACGACUG = class 1
• AGUAAGCAAUAUUACGGCCC = class 1
• AGACAGCAAUAUUACGGACU = class 1
• ACAAAGCAAUAUUACGUGCG = class 1
• AGGAAGCAAUAUUACGAGGU = class 0
• CAUGAGCAAUAUUACGGGAG = class 1
• ACUGAGCAAUAUUACGGUGG = class 0
• GACGAGCAAUAUUACGUGGG = class 0
• AAAUAGCAAUAUUACGUCAG = class 0
• CCCGAGCAAUAUUACGGUUC = class 0
• GAAGAGCAAUAUUACGCGGG = class 0
• AUCCAGCAAUAUUACGUAUG = class 0
• CCUCAGCAAUAUUACGCCAU = class 0
• AUCAAGCAAUAUUACGUGCG = class 1
• CCACAGCAAUAUUACGAUCU = class 0
• CGUUAGCAAUAUUACGAGGA = class 0
• ACUUAGCAAUAUUACGGCAC = class 1
• CACGAGCAAUAUUACGCGUG = class 0
• UGUUAGCAAUAUUACGUAGA = class 0
• AAAUAGCAAUAUUACGCAGU = class 0
• CCACAGCAAUAUUACGCCCG = class 1
• CAAGAGCAAUAUUACGUUAA = class 0
• GCGAAGCAAUAUUACGACUU = class 1
• CUACAGCAAUAUUACGUUAG = class 0
• AUGAAGCAAUAUUACGGCCA = class 1
• UUGAAGCAAUAUUACGCACU = class 1
• UAACAGCAAUAUUACGGCGU = class 1
• CGAUAGCAAUAUUACGAUAA = class 0
• GCGAAGCAAUAUUACGACGG = class 1
• CCUUAGCAAUAUUACGAGGU = class 0
• AUCCAGCAAUAUUACGCCGA = class 1
• UAGUAGCAAUAUUACGGGGC = class 0
• GCCUAGCAAUAUUACGGGUU = class 0
• CCCGAGCAAUAUUACGUGUC = class 0
• AACUAGCAAUAUUACGUCUG = class 1

* * *

method-notes: self-splicing fitness, log relative to wild type (ln ratio); higher = more splicing; Tetrahymena group I intron in knt gene, E. coli kanamycin selection, DiMSum; sequences stand for … in CUCUCU…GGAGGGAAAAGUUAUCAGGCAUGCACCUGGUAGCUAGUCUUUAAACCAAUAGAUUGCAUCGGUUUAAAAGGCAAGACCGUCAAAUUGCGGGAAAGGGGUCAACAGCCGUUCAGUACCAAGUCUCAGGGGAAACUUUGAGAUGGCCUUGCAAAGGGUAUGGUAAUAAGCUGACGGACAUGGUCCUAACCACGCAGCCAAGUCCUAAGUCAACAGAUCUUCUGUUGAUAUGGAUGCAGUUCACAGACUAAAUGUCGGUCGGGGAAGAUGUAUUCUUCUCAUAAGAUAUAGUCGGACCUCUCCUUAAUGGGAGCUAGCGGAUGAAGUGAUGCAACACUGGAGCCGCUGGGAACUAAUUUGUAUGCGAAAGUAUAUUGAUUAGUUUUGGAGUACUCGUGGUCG
stated-conditions: 30 °C
assay-readout: self-splicing fitness (ln)

* AUGGAGCAAUAUUACGCCUA | -0.868
* CAUGAGCAAUAUUACGAUCU | -2.9
* GAGCAGCAAUAUUACGUCGU | -1.35
* AUUCAGCAAUAUUACGGGAA | -1.36
* GGGGAGCAAUAUUACGGGUA | -2.64
* UAAGAGCAAUAUUACGUACA | -2.95
* AGUCAGCAAUAUUACGGGAU | -1.04
* GCCAAGCAAUAUUACGCAGC | -2.96
* AAGAAGCAAUAUUACGCAGC | -3.17
* ACUCAGCAAUAUUACGUAGG | -0.866
* AGCAAGCAAUAUUACGGUGA | -1.88
* GCCAAGCAAUAUUACGUUAU | -2.76
* GAAAAGCAAUAUUACGUAGG | -3.87
* UUCUAGCAAUAUUACGCGGG | -3.28
* AGACAGCAAUAUUACGAAAU | -2.88
* AUGCAGCAAUAUUACGCUGC | -4.54

* * *

self-splicing fitness (ln) overview
method-notes: self-splicing fitness, log relative to wild type (ln ratio); higher = more splicing; Tetrahymena group I intron in knt gene, E. coli kanamycin selection, DiMSum; sequences stand for … in CUCUCU…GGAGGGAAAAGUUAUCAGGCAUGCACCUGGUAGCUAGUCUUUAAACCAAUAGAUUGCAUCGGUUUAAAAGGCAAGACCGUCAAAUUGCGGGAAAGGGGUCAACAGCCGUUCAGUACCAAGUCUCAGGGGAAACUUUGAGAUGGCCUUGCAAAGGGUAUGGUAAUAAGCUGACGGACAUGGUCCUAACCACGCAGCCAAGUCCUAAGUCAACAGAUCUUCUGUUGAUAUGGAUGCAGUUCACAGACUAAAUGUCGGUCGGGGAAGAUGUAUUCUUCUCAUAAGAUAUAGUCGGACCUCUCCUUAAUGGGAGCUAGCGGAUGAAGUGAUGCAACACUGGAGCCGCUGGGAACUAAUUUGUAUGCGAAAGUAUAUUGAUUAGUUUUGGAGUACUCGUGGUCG
stated-conditions: 30 °C
assay-readout: self-splicing fitness (ln)

- GACAAGCAAUAUUACGACAC: -0.384
- GCCCAGCAAUAUUACGACCG: -2.84
- GUCCAGCAAUAUUACGAGUC: -1.23
- GGACAGCAAUAUUACGGACC: -1.35
- AGCGAGCAAUAUUACGGUGG: -2.67
- UCCCAGCAAUAUUACGGUCU: -1.83
- AAAGAGCAAUAUUACGGUGU: -4.54
- AGGGAGCAAUAUUACGUGAC: -2.06
